Test system: Daudi Cell Culture
Experiment: Compound primary screening in Daudi cell culture
Format: cell-based
Details: Homo sapiens, 168 h; Daudi cells, 1250 cells per well, reads on Day 7
pEC50: −log10 of the molar value.
endpoint name: pEC50

INSERT INTO assay_data (molecule, endpoint_name, test_result) VALUES
  ('CC(C)OC(=O)NCc1ccc(-c2cnc(-c3ccc(NC(=O)OC(C)C)cc3)s2)c(S(=O)(=O)NC(C)(C)C)c1 [Compound P9]', 'pEC50', '< 5.00'),
  ('CC(C)OC(=O)Nc1ccc(-c2ncc(-c3ccc(C(F)(F)F)cc3S(=O)(=O)NC(C)(C)C)s2)cc1 [Compound J6]', 'pEC50', '> 5.00'),
  ('CC(=O)Nc1ccc(-c2cnc(-c3ccc(NC(=S)NC(C)C)cc3)s2)c(S(=O)(=O)NCc2ccncc2)c1 [Compound D12]', 'pEC50', '< 5.00'),
  ('C=C(C)COC(=O)Nc1ccc(-c2cnc(-c3ccc(NC(=O)OC(C)C)cc3)s2)c(S(=O)(=O)NC(C)(C)C)c1 [Compound B5]', 'pEC50', '> 6.00');

## Task Which measured pEC50 value corresponds to CC(C)OC(=O)Nc1ccc(-c2ncc(-c3ccc(NC(C)C(F)(F)F)cc3S(=O)(=O)NC(C)(C)C)s2)cc1 (stereo not shown) [Compound J3] ?
## Result > 5.30

## Task Which measured pEC50 value corresponds to CC(C)OC(=O)Nc1ccc(-c2ncc(-c3ccc(CO)cc3S(=O)(=O)NC(C)(C)C)s2)cc1 [Compound J1] ?
## Result > 5.30

## Task Which measured pEC50 value corresponds to CC(C)OC(=O)Nc1ccc(-c2ncc(-c3ccc(CNC(=O)OCc4ccccc4)cc3S(=O)(=O)NC(C)(C)C)s2)cc1 [Compound Q2] ?
## Result < 5.00

* * *

EC50 values, listed per item
System: Daudi Cell Culture
Test: Compound primary screening in Daudi cell culture
Type: cell-based
Details: Homo sapiens, 168 h; Daudi cells, 1250 cells per well, reads on Day 7
Method: Compound Primary Screening 1. Materials and Supplies […] A 96 well u-bottom plate was prepared by writing the experiment number, plate number, date and initials in the top right corner of the plate lid. […] Cell cultures were counted to obtain the density of cells per ml, and the culture viability. […] Once the media volume was calculated, the appropriate volume of media was pipetted in 25 mL increments into the 250 mL bottle using a 25 mL serological pipette. […]

INSERT INTO results (smiles_representation, test_result) VALUES
  ('CC(=O)Nc1ccc(-c2cnc(-c3ccc(NC(=S)NC(C)C)cc3)s2)c(S(=O)(=O)N[C@@H](C)CO)c1', '> 10 µM'),
  ('CC(C)OC(=O)Nc1ccc(-c2ncc(-c3ccc(-c4cnc[nH]4)cc3S(=O)(=O)NC(C)(C)C)s2)cc1', '< 5 µM'),
  ('CC(C)NC(=S)Nc1ccc(-c2ncc(-c3ccc(N4CCN(Cc5ccccc5)C4=O)cc3S(=O)(=O)NC(C)(C)C)s2)cc1', '> 10 µM'),
  ('CC(C)NC(=S)Nc1ccc(-c2ncc(-c3ccc(NC(=O)N(C)Cc4ccccc4)cc3S(=O)(=O)NC(C)(C)C)s2)cc1', '> 10 µM'),
  ('CCS(=O)(=O)Nc1ccc(-c2ncc(-c3ccc(NC(C)=O)cc3S(=O)(=O)NC(C)(C)C)s2)cc1', '> 10 µM');

## Task Which measured EC50 value corresponds to CC(=O)Nc1ccc(-c2cnc(-c3ccc(NC(C)=O)cc3S(=O)(=O)NC(C)(C)C)s2)c(S(=O)(=O)NC(C)(C)C)c1 ?
## Result < 10 µM

## Task Which measured EC50 value corresponds to COC(=O)[C@H](C)NS(=O)(=O)c1cc(NC(C)=O)ccc1-c1cnc(-c2ccc(NC(=S)NC(C)C)cc2)s1 ?
## Result > 10 µM

## Task Which measured EC50 value corresponds to CC(C)NC(=S)Nc1ccc(-c2ncc(-c3ccc(NC(=O)NCc4ccccn4)cc3S(=O)(=O)NC(C)(C)C)s2)cc1 ?
## Result < 10 µM

## Task Which measured EC50 value corresponds to CC(C)OC(=O)Nc1ccc(-c2ncc(-c3ccc(NC(=O)[C@H]4CCCN4)cc3S(=O)(=O)NC(C)(C)C)s2)cc1 ?
## Result < 5 µM

## Task Which measured EC50 value corresponds to CC(=O)Nc1ccc(-c2cnc(-c3ccc(NC(=S)NC(C)C)cc3)s2)c(S(=O)(=O)N[C@H](CO)C(C)C)c1 ?
## Result > 10 µM

## Task Which measured EC50 value corresponds to CC(C)OC(=O)Nc1ccc(-c2ncc(-c3ccc(NC4(C)COC4)cc3S(=O)(=O)NC(C)(C)C)s2)cc1 ?
## Result < 5 µM

## Task Which measured EC50 value corresponds to CC(=O)Nc1ccc(-c2cnc(-c3ccc(NC(=S)NC(C)C)cc3)s2)c(S(=O)(=O)NCc2ccccc2)c1 ?
## Result > 10 µM

## Task Which measured EC50 value corresponds to CC(C)OC(=O)Nc1ccc(-c2ncc(-c3ccc(NC(=O)OCc4ccncc4)cc3S(=O)(=O)NC(C)(C)C)s2)cc1 ?
## Result < 1 µM

## Task Which measured EC50 value corresponds to CC(=O)Nc1ccc(-c2cnc(-c3ccc(N4CC(C)(C)OC4=O)cc3)s2)c(S(=O)(=O)NC(C)(C)C)c1 ?
## Result > 10 µM
